Test: in vivo
Parameters: species or system dog
Conditions: both sexes, dog, in vivo; Beagle dogs, single po administration; read-out: maximum tolerated dose (MTD)
experimental.endpoint: MTD

What the record says about `[2H]C([2H])([2H])C1(C([2H])([2H])[2H])NC(=O)N(c2ccc(F)c(C(C)(F)F)c2)C1=O` : MTD is > 150 mg/kg

* * *

Test: Mouse exposure / pharmacokinetic studies
Type: in vivo, mice
Conditions: male, Swiss outbred, mouse, in vivo; mice, oral, mean dose 13.5 mg/kg; read-out: Plasma Cmax
experimental.endpoint: Cmax (ng/mL)
Numbers only, in ng/mL.

Cmax measured on `[2H]C([2H])([2H])C1(C([2H])([2H])[2H])NC(=O)N(c2ccc(F)c(C(C)(F)F)c2)C1=O` = 8590
